// provenance: patent US8557800B2

System: Panc-1 (pancreas)
Experiment: Human tumor cell line panel, sulforhodamine B
Type: cell-based
Settings: 48 hours, mean ± sd

>  <compound>
CN1CCCC1CCNC(=O)C12CC3CC(C1)CC(c1ccc(Cl)cc1)(C3)C2 (centres unmarked)

>  <readout_unit>
µM

>  <IC50>
14.1

$$$$
>  <compound>
O=C(NCc1ccncc1)C12CC3CC(C1)CC(c1ccc(Cl)cc1)(C3)C2

>  <readout_unit>
µM

>  <IC50>
32.8

$$$$

###

Below is a list of entries, each paired with its recorded melting point value.
observed_property: melting point

>  <molecular_string>
Oc1ccc(NCC23CC4CC(C2)CC(c2ccc(Cl)cc2)(C4)C3)cc1

>  <measured>
138 to 140 °C

$$$$
>  <molecular_string>
CCn1c2ccccc2c2cc(/C=C/C(=O)C34CC5CC(C3)CC(c3ccc(Cl)cc3)(C5)C4)ccc21

>  <measured>
138 to 140 °C

$$$$
>  <molecular_string>
O=C(/C=C/c1ccc2ccccc2c1)C12CC3CC(C1)CC(c1ccc(Cl)cc1)(C3)C2

>  <measured>
82 to 84 °C

$$$$
>  <molecular_string>
O=C(/C=C/c1ccc(O)cc1)C12CC3CC(C1)CC(c1ccc(Cl)cc1)(C3)C2

>  <measured>
87 to 89 °C

$$$$

###

Test system: MCF-10A non-transformed human breast epithelial cells
Test: Cytotoxicity, SRB binding assay
Type: cell-based
Settings: inhibition of cell proliferation, 48 h, read-out: MCF-10A IC50
Could you please mark YES for values of IC50 below 40 µM and NO for values at or above it?

>  <compound>
O=C(O)C12CC3CC(C1)CC(c1ccc(F)cc1)(C3)C2

>  <class_label>
NO

$$$$
>  <compound>
O=C(NCCc1ccc(O)cc1)C12CC3CC(C1)CC(c1ccc(Cl)cc1)(C3)C2

>  <class_label>
YES

$$$$
>  <compound>
O=C(NCc1ccccc1)C12CC3CC(C1)CC(c1ccc(Cl)cc1)(C3)C2

>  <class_label>
NO

$$$$
>  <compound>
CC(Nc1ccccc1)C12CC3CC(CC(c4ccc(Cl)cc4)(C3)C1)C2 (stereo not drawn)

>  <class_label>
NO

$$$$
>  <compound>
O=C(Nc1nc2cc(Cl)ccc2o1)C12CC3CC(C1)CC(c1ccc(Cl)cc1)(C3)C2

>  <class_label>
YES

$$$$
>  <compound>
O=C(Nc1nc2ccccc2s1)C12CC3CC(C1)CC(c1ccc(Cl)cc1)(C3)C2

>  <class_label>
NO

$$$$
>  <compound>
COC(=O)C(C(=O)OC)C(=O)C12CC3CC(CC(C3)C1)C2

>  <class_label>
NO

$$$$
>  <compound>
O=C(Nc1cccc(CO)c1)C12CC3CC(C1)CC(c1ccc(Cl)cc1)(C3)C2

>  <class_label>
YES

$$$$
>  <compound>
O=C(Nc1ccccc1)C12CC3CC(C1)CC(c1ccc(Cl)cc1)(C3)C2

>  <class_label>
NO

$$$$

###

Assay: Oral pharmacokinetics in mice (PEG400)
Type: in vivo
Conditions: mouse, blood; 100 mg/kg oral gavage in PEG400, female Swiss-Webster mice

>  <compound>
O=C(NCc1ccncc1)C12CC3CC(C1)CC(c1ccc(Cl)cc1)(C3)C2

>  <Tmax>
0.5 h

$$$$
>  <compound>
CN1CCCC1CCNC(=O)C12CC3CC(C1)CC(c1ccc(Cl)cc1)(C3)C2 (centres unmarked)

>  <Tmax>
2 h

$$$$

###

Tested on: MCF-7 (breast, ER+)
Test: Human tumor cell line panel, sulforhodamine B
Type: cell-based
Conditions: MCF7, 48 hours, mean ± sd
observed_property: IC50 (µM)

>  <molecule>
O=C(NCc1ccncc1)C12CC3CC(C1)CC(c1ccc(Cl)cc1)(C3)C2

>  <measured>
18.4

$$$$
>  <molecule>
CN1CCCC1CCNC(=O)C12CC3CC(C1)CC(c1ccc(Cl)cc1)(C3)C2 (centres unmarked)

>  <measured>
12.1

$$$$

###

System: 1025LU (melanoma)
Experiment: Human tumor cell line panel, sulforhodamine B
Type: cell-based
Conditions: 48 hours, mean ± sd
Below is a list of entries, each paired with its recorded IC50 value.

>  <molecule>
CN1CCCC1CCNC(=O)C12CC3CC(C1)CC(c1ccc(Cl)cc1)(C3)C2 (centres unmarked) [Compound 57]

>  <measured_on>
1025LU (melanoma)

>  <readout_unit>
µM

>  <IC50>
7.2

$$$$
>  <molecule>
O=C(NCc1ccncc1)C12CC3CC(C1)CC(c1ccc(Cl)cc1)(C3)C2 [Compound 62]

>  <measured_on>
1025LU (melanoma)

>  <readout_unit>
µM

>  <IC50>
33.7

$$$$

###

Tested on: MCF-7 human breast adenocarcinoma cells
Test: Cytotoxicity, SRB binding assay
Assay type: cell-based
Details: MCF7, 48 h, read-out: MCF-7 IC50 (μM)

>  <molecule>
CC(=O)C12CC3CC(CC(C3)C1)C2 [Compound 124, 1-Adamantan-1-yl-ethanone]

>  <IC50 [µM]>
11

$$$$

###

Below is a list of entries, each paired with its recorded Cellular S1P (% inhibition) value.
Test system: endogenous SK in MDA-MB-231 human breast carcinoma cells
Experiment: Intact cell SK assay, conversion of [3H]sphingosine to [3H]S1P
Type: cell-based
Conditions: MDA-MB-231 cells, 20 μg/ml compound

>  <molecular_string>
COc1ccc(CCNC(=O)C23CC4CC(C2)CC(c2ccc(Cl)cc2)(C4)C3)cc1

>  <measured_on>
endogenous SK in MDA-MB-231 human breast carcinoma cells

>  <readout_unit>
%

>  <Cellular S1P (% inhibition)>
23

$$$$
>  <molecular_string>
O=C(NCc1ccc(O)c(O)c1)C12CC3CC(C1)CC(c1ccc(Cl)cc1)(C3)C2

>  <measured_on>
endogenous SK in MDA-MB-231 human breast carcinoma cells

>  <readout_unit>
%

>  <Cellular S1P (% inhibition)>
72

$$$$
>  <molecular_string>
CCn1c2ccccc2c2cc(NCC34CC5CC(C3)CC(c3ccc(Cl)cc3)(C5)C4)ccc21

>  <measured_on>
endogenous SK in MDA-MB-231 human breast carcinoma cells

>  <readout_unit>
%

>  <Cellular S1P (% inhibition)>
1

$$$$

###

Test system: MCF-10A non-transformed human breast epithelial cells
Experiment: Cytotoxicity, SRB binding assay
Format: cell-based
Conditions: inhibition of cell proliferation, 48 h, read-out: MCF-10A IC50
Below is a list of entries, each paired with its recorded log10 of IC50 value.
observed_property: log10 of IC50 (log10 of the value in µM)

>  <compound>
CN1CCC(NC(=O)C23CC4CC(C2)CC(c2ccc(Cl)cc2)(C4)C3)CC1

>  <measured>
1.40

$$$$
>  <compound>
O=C(NCCc1ccc(F)cc1)C12CC3CC(C1)CC(c1ccc(Cl)cc1)(C3)C2

>  <measured>
1.60

$$$$
>  <compound>
O=C(NCCc1ccccc1)C12CC3CC(C1)CC(c1ccc(Cl)cc1)(C3)C2

>  <measured>
2.10

$$$$
>  <compound>
CCn1c2ccccc2c2cc(NC(=O)C34CC5CC(C3)CC(c3ccc(Cl)cc3)(C5)C4)ccc21

>  <measured>
2.02

$$$$
>  <compound>
O=C(Nc1ccc(O)cc1)C12CC3CC(C1)CC(c1ccc(Cl)cc1)(C3)C2

>  <measured>
1.18

$$$$
>  <compound>
CC(=O)C12CC3CC(C1)CC(c1ccccc1)(C3)C2

>  <measured>
1.77

$$$$
>  <compound>
CCn1c2ccccc2c2cc(NCC34CC5CC(C3)CC(c3ccc(Cl)cc3)(C5)C4)ccc21

>  <measured>
1.61

$$$$
>  <compound>
COC(=O)C(C(=O)OC)C(=O)C12CC3CC(C1)CC(c1ccc(Cl)cc1)(C3)C2

>  <measured>
2.02

$$$$
>  <compound>
N#CCc1ccc(NC(=O)C23CC4CC(C2)CC(c2ccc(Cl)cc2)(C4)C3)cc1

>  <measured>
1.94

$$$$
>  <compound>
O=C(NCCN1CCOCC1)C12CC3CC(C1)CC(c1ccc(Cl)cc1)(C3)C2

>  <measured>
1.56

$$$$
>  <compound>
O=C(NCCc1ccc(O)c(O)c1)C12CC3CC(C1)CC(c1ccc(Cl)cc1)(C3)C2

>  <measured>
0.95

$$$$
>  <compound>
CC(NC(=O)C12CC3CC(C1)CC(c1ccc(Cl)cc1)(C3)C2)c1ccc(Br)cc1 (centres unmarked)

>  <measured>
2.03

$$$$
>  <compound>
CN1CCN(NC(=O)C23CC4CC(C2)CC(c2ccc(Cl)cc2)(C4)C3)CC1

>  <measured>
1.18

$$$$
>  <compound>
O=C(Nc1nc(-c2ccc(Cl)cc2)cs1)C12CC3CC(CC(C3)C1)C2

>  <measured>
2.03

$$$$
>  <compound>
CC(C)NC(=O)C12CC3CC(C1)CC(c1ccc(Cl)cc1)(C3)C2

>  <measured>
2.18

$$$$
>  <compound>
O=C(NCc1ccc(O)c(O)c1)C12CC3CC(C1)CC(c1ccc(Cl)cc1)(C3)C2

>  <measured>
0.95

$$$$
>  <compound>
CC(NC1CCN(C)CC1)C12CC3CC(CC(c4ccccc4)(C3)C1)C2 (centres unmarked)

>  <measured>
1.15

$$$$
>  <compound>
Cc1cc2cc(NC(=O)C34CC5CC(C3)CC(c3ccc(Cl)cc3)(C5)C4)ccc2[nH]1

>  <measured>
1.72

$$$$
>  <compound>
CC(C)NC(C)C12CC3CC(CC(c4ccc(Cl)cc4)(C3)C1)C2 (centres unmarked)

>  <measured>
0.78

$$$$
>  <compound>
Clc1ccc(-c2cnc(NCC34CC5CC(C3)CC(c3ccc(Cl)cc3)(C5)C4)s2)cc1

>  <measured>
2.03

$$$$
>  <compound>
O=C(Nc1ccc(O)cc1O)C12CC3CC(C1)CC(c1ccc(Cl)cc1)(C3)C2

>  <measured>
1.97

$$$$
>  <compound>
O=C(NCCc1ccc(Br)cc1)C12CC3CC(C1)CC(c1ccc(Cl)cc1)(C3)C2

>  <measured>
2.03

$$$$
>  <compound>
N#CCc1ccc(NC(=O)C23CC4CC(CC(C4)C2)C3)cc1

>  <measured>
2.23

$$$$
